Assay: chemical genetic growth profiling, strain panel (AID 1159580);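 note: tested at 20 µM; growth read once vehicle control cultures reached saturation at 30 °C; lower values mean less growth of the strain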
Conditions: S. cerevisiae deletion strains, growth OD, locus YJL168C, strain set2, hits give low values
Hit rate of the full screen: of about 5,500 compounds, about 2,000 (36%) were called active. Roughly 18% stayed inconclusive and do not appear here. The list shows a part of the results.
I'd appreciate it if you marked entries Yes when normalized growth is lower than 1 and No when it is not.

Solved entries:
NC(=NCCC[C@H](N)C(=O)O)NC(CCC(=O)O)C(=O)O (stereo not given in full)    No
CC(=O)O[C@@H]1C[C@@]2(C)[C@H](c3ccoc3)C[C@H]3O[C@]32[C@]2(C)C(=O)C(O)=C3C(C)(C)C(=O)C=C[C@]3(C)C12 (stereo not given in full)    Yes

Q. Criterion: normalized growth strictly below 1. Is it met by Nc1nc2c(ncn2C2C[C@H](O)[C@@H](CO)O2)c(=O)[nH]1 (stereo not given in full) ?
A. Yes

Q. Criterion: normalized growth strictly below 1. Is it met by Nc1ncnc2c1ncn2C1O[C@H](COP(=O)(O)O)[C@@H](O)[C@H]1O (stereo not given in full) ?
A. Yes
